Hey, just so you know, these numbers are from patent US20240270821A1.

- protocol: Pharmacokinetics in male Sprague Dawley rats, single subcutaneous administration
- condition.details: rat, in vivo, sc, 10 nmol/kg
Starred links: 1 amine or outer side, 2 acyl side, 3 side chain; linkers in the order of their positions; H or OH if unused. Non-standard residues stand in square brackets, D forms with d. Groups on a side chain read outwards from the residue. No end group written: not given here. *: point of attachment. C20 diacid = O=C(O)CCCCCCCCCCCCCCCCCCC(=O)*; Phe(4-CN) = N#Cc1ccc(C[C@H](N)C(=O)O)cc1; αMePhe(2-F) = C[C@](N)(Cc1ccccc1F)C(=O)O; γGlu = O=C(O)[C@H](CCC(=O)[*:2])N[*:1]; εLys = N[C@@H](CCCCN[*:1])C(=O)[*:2]; αMeL = CC(C)C[C@](C)(N)C(=O)O; AEEA = NCCOCCOCC(=O)O; Aib = CC(C)(N)C(=O)O
recorded.endpoint: half-life
# answer = value followed by unit

Sample answers from the record:
substance="H-Y[Aib]QGT[αMePhe(2-F)]TSD[Phe(4-CN)]SILLDKQAQK([AEEA-AEEA-γGlu-C20 diacid])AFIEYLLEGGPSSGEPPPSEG-NH2 [Example 321]" recorded_endpoint=half-life reported_value="26.2 h"
substance="H-Y[Aib]QGTFTSDYSI[αMeL]LDKQAAK([εLys-εLys-γGlu-C20 diacid])QFVEWLLA[Aib]GPSSGEPPPSEG-NH2 [Example 329]" recorded_endpoint=half-life reported_value="12.6 h"
substance="Y[Aib]QGTFTSDFSK[αMeL]LDKK([AEEA-γGlu-C20 diacid])AQ[Aib]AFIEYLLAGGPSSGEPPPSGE-NH2 [Example 2]" recorded_endpoint=half-life reported_value="12.1 h"

Pending substance:
half-life for H-Y[Aib]QGTFTSDYSI[αMeL]LDKK([AEEA-γGlu-C20 diacid])AQRAFIEYLLEGGPSSGEPPPSEG-NH2 [Example 289] is 22.4 h
